Molecular target: human GITR on 293F‐hGITR cells (Homo sapiens (Human)., UniProt Q9Y5U5-1)
Sequence (Q9Y5U5 26-241): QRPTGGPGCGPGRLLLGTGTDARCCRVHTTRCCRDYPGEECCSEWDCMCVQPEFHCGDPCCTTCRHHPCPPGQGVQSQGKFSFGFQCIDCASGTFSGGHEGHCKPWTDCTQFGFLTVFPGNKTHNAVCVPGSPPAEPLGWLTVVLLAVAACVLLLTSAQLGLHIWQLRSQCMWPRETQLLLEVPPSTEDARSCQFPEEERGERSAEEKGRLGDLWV
Test: cell-based or functional assay
NF‐ĸB luciferase reporter assay, Crosslinking, EC50 below 7 nM gives NO; NF‐ĸB luciferase reporter assay, Crosslinking, EC50 at or above it gives YES.

Check this binder for NF‐ĸB luciferase reporter assay, Crosslinking, EC50 at or above 7 nM: hab064e1 (antibody, V domains shown, 3503‐hab064‐VH(N2S); the substitution is against the VH of m13; position not given; 3503‐hab064‐Vk(T2K/C2Y); the substitutions are against the VL of m13; positions not given; Whole antibody, human IgG1 heavy chain constant region, human kappa light chain constant region; source: FreeStyle 293F, transiently co-transfected, purified from culture supernatant) VH: QVQLVESGGGVVQPGRSLRLSCAASGFTFSSYGMHWVRQAPGKGLEWVAVIWYETSNKYYADSVKGRFTISRDNSKNTLYLQMNSLRAEDTAVYYCARYGGNSGWYWYFDLWGRGTLVTVSS VL: DIQLTQSPSFLSASVGDRVTITCRASQGISSFLAWYQQKPGKAPKLLIYAASTLQSGVPSRFSGSGSGTEFTLTISSLQPEDFATYYCQQLNSYPFTFGQGTKLEIK
YES

Others:
Check this binder for NF‐ĸB luciferase reporter assay, Crosslinking, EC50 at or above 7 nM: hab076 (antibody, V domains shown, 3503‐hab076‐VH; 3503‐hab076‐Vk; Whole antibody, human IgG1 heavy chain constant region, human kappa light chain constant region; source: FreeStyle 293F, transiently co-transfected, purified from culture supernatant) VH: QVQLVESGGGVVQPGRSLRLSCAASGFTFSSYGMHWVRQAPGKGLEWVAVIWYETSNKYYADSVKGRFTISRDNSKNTLYLQMNSLRAEDTAVYYCARYGASSGWYWYFDLWGRGTLVTVSS VL: DIQLTQSPSFLSASVGDRVTITCRASQGISSYLAWYQQKPGKAPKLLIYAASTLQSGVPSRFSGSGSGTEFTLTISSLQPEDFATYCCQQLNSYPFTFGQGTKLEIK
NO

Check this binder for NF‐ĸB luciferase reporter assay, Crosslinking, EC50 at or above 7 nM: hab070e1 (antibody, V domains shown, as the VH of m14 (3503‐hab070‐VH); 3503‐hab070‐Vk(C2Y); the substitution is against the VL of m14 (Cys in FR3 of VL); position not given; Whole antibody, human IgG1 heavy chain constant region, human kappa light chain constant region; also called hab70e1; source: FreeStyle 293F, transiently co-transfected, purified from culture supernatant) VH: QVQLVESGGGVVQPGRSLRLSCAASGFTFSSYGMHWVRQAPGKGLEWVAVIWYETSNKFYVDSVKGRFTISRDNSKNTLYLQMNSLRAEDTAVYYCARYGASSGWYWYFDLWGRGTLVTVSS VL: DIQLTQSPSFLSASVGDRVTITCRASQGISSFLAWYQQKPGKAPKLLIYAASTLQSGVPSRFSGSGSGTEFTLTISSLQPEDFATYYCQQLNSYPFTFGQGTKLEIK
NO

Check this binder for NF‐ĸB luciferase reporter assay, Crosslinking, EC50 at or above 7 nM: mAb064 (antibody, V domains shown, as the VH of m13; as the VL of m13; Human-murine chimeric antibody from H2L2 mice: human variable regions, rat constant regions; source: hybridoma cell culture supernatant, purified (Protein A)) VH: QVQLVESGGGVVQPGRSLRLSCAASGFTFSSYGMHWVRQAPGKGLEWVAVIWYETSNKYYADSVKGRFTISRDNSKNTLYLQMNNLRAEDTAVYYCARYGGNSGWYWYFDLWGRGTLVTVSS VL: DIQLTQSPSFLSASVGDRVTITCRASQGISSFLAWYQQKPGTAPKLLIYAASTLQSGVPSRFSGSGSGTEFTLTISSLQPEDFATYCCQQLNSYPFTFGQGTKLEIK
NO

Check this binder for NF‐ĸB luciferase reporter assay, Crosslinking, EC50 at or above 7 nM: hab070 (antibody, V domains shown, 3503‐hab070‐VH; 3503‐hab070‐Vk; Whole antibody, human IgG1 heavy chain constant region, human kappa light chain constant region; source: FreeStyle 293F, transiently co-transfected, purified from culture supernatant) VH: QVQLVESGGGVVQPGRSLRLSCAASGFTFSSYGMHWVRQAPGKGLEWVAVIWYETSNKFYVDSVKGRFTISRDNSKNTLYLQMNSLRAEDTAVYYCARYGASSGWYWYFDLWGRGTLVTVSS VL: DIQLTQSPSFLSASVGDRVTITCRASQGISSFLAWYQQKPGKAPKLLIYAASTLQSGVPSRFSGSGSGTEFTLTISSLQPEDFATYCCQQLNSYPFTFGQGTKLEIK
YES
